Target: human PCSK9 / human LDLR EGFa domain interaction (Homo sapiens (Human))
Sequence (Q8NBP7 153-692): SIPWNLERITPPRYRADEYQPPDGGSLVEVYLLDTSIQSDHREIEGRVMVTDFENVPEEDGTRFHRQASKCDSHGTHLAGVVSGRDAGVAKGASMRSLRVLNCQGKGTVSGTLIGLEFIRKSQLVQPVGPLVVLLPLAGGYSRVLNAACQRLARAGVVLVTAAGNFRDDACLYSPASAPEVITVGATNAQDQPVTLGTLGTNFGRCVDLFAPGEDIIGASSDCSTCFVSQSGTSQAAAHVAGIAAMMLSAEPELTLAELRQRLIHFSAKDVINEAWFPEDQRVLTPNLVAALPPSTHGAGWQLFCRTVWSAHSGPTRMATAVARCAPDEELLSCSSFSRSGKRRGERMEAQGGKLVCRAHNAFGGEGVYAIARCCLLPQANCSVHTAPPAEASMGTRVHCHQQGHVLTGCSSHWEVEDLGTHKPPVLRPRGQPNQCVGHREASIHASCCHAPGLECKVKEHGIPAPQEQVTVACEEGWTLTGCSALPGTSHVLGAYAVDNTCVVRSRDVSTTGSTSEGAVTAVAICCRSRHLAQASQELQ
Sequence (Q8NBP7 31-152 partner): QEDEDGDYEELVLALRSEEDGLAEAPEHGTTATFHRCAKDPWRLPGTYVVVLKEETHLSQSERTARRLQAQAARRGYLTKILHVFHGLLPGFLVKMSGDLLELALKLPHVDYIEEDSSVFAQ
Assay: TR-FRET assay of inhibition of the PCSK9-LDLR protein-protein interaction
Format: binding
Conditions: TR-FRET, 20 nM human PCSK9, 20 nM human LDLR EGFa domain, 2 hours room temperature; read-out: IC50
pIC50: −log10 of the molar value. Starred links: 1 amine or outer side, 2 acyl side, 3 side chain; linkers in the order of their positions; H or OH if unused. Positions of bridges follow the written chain, without caps; N, C: chain ends. Non-standard residues stand in square brackets, D forms with d. Residues, ends and D or L forms follow the SMILES beside them. Trp(5-F) = N[C@@H](Cc1c[nH]c2ccc(F)cc12)C(=O)O; X17 = O=C(CCSCc1ccc(CSCCN[*:1])cc1)[*:2]; Pro(4S-NH2) = N[C@@H]1CN[C@H](C(=O)O)C1; X4 = O=C(CCSCc1cccc(CSCCN[*:1])c1)[*:2]; mXylylene = c1cc(C[*:1])cc(C[*:2])c1; NMeY = CN[C@@H](Cc1ccc(O)cc1)C(=O)O; Val(3-OH) = CC(C)(O)[C@H](N)C(=O)O; αMeP = C[C@@]1(C(=O)O)CCCN1; Aze = O=C(O)[C@@H]1CCN1; Mpa = O=C(O)CCS
Readout label: pIC50

C[C@H]1NC(=O)[C@H](CCCCN)NC(=O)CCSCc2cccc(c2)CSCCNC(=O)[C@]2(C)CCCN2C(=O)[C@H](Cc2ccc(O)cc2)N(C)C(=O)[C@H](Cc2c[nH]cn2)NC(=O)[C@H](CC(=O)O)NC(=O)[C@H](Cc2c[nH]c3ccc(F)cc23)NC(=O)[C@H](Cc2c[nH]c3ccc(F)cc23)NC1=O [Compound 277] (cyclo(DH[NMeY][αMeP][X4]K[dA][Trp(5-F)][Trp(5-F)])); 7.00 to 10.00
COc1ccc(C[C@@H]2NC(=O)[C@H](CCC(=O)O)NC(=O)[C@@H]3C[C@H](N)CN3C(=O)[C@H](Cc3c[nH]c4ccc(F)cc34)NC(=O)[C@H](Cc3c[nH]c4ccc(F)cc34)NC(=O)[C@@H](C)NC(=O)[C@H](C)NC(=O)CCSCc3ccc(cc3)CSCCNC(=O)[C@]3(C)CCCN3C2=O)cc1 [Compound 382] (cyclo(A[dA][Trp(5-F)][Trp(5-F)][Pro(4S-NH2)]EY(Me)[αMeP][X17])); 7.00 to 10.00
C[C@H]1NC(=O)[C@H](Cc2ccc(O)cc2)NC(=O)[C@H](Cc2cnc[nH]2)NC(=O)[C@H](CC(=O)O)NC(=O)[C@H](Cc2c[nH]c3ccc(F)cc23)NC(=O)[C@H](Cc2c[nH]c3ccc(F)cc23)NC(=O)CNC(=O)[C@H](CCCCN)NC(=O)CCSCc2cccc(c2)CSC[C@@H](C(N)=O)NC1=O [Compound 320] ([Mpa]KG[Trp(5-F)][Trp(5-F)]DHY[dA]C-NH2; linker 1-10 via mXylylene); 4.30 to 4.68
CC(C)(O)[C@@H]1NC(=O)CCSCc2cccc(c2)CSC[C@@H](C(N)=O)NC(=O)[C@]2(C)CCCN2C(=O)[C@H](Cc2ccc(O)cc2)NC(=O)[C@H](Cc2cnc[nH]2)NC(=O)[C@H](CC(=O)O)NC(=O)[C@H](Cc2c[nH]c3ccc(F)cc23)NC(=O)[C@H](Cc2c[nH]c3ccc(F)cc23)NC(=O)CNC1=O [Compound 374] ([Mpa][Val(3-OH)]G[Trp(5-F)][Trp(5-F)]DHY[αMeP]C-NH2; linker 1-10 via mXylylene); 7.00 to 10.00

Now, please, on to the next molecule.
Exercise: Output reported pIC50 of the molecule NCCCC[C@@H]1NC(=O)CCSCc2cccc(c2)CSC[C@@H](C(N)=O)NC(=O)[C@@H]2CCN2C(=O)[C@H](Cc2ccc(O)cc2)NC(=O)[C@H](Cc2cnc[nH]2)NC(=O)[C@H](CC(=O)O)NC(=O)[C@H](Cc2c[nH]c3ccc(F)cc23)NC(=O)[C@H](Cc2c[nH]c3ccc(F)cc23)NC(=O)CNC1=O [Compound 207] ([Mpa]KG[Trp(5-F)][Trp(5-F)]DHY[Aze]C-NH2; linker 1-10 via mXylylene) on human PCSK9 / human LDLR EGFa domain interaction (Homo sapiens (Human)).
Key: 4.30 to 4.68
